Tested on: human umbilical vein endothelial cells (HUVEC)
experimentNotes: HUVEC + VEGF proliferation assay
Type: cell-based
particulars: VEGF-stimulated proliferation, final VEGF 6 ng/mL, 72 hours, MTT
pIC50: −log10 of the molar value.
# key: entry, value: pIC50

molecule: Cc1cc(C)nc(NC(=O)Cc2ccc(Oc3ccnc4cc(C(=O)N5CCC5)sc34)cc2)c1 [Example 22]
systemTested: human umbilical vein endothelial cells (HUVEC)
valueMeasured: > 9.00
//
molecule: Cc1cc(C)nc(NC(=O)Cc2ccc(Oc3ccnc4cc(C(=O)N(C)C)sc34)cc2)c1 [Example 7]
systemTested: human umbilical vein endothelial cells (HUVEC)
valueMeasured: > 9.00

Turning now to a further molecule:
Query: Which pIC50 is reported for this molecule? O=C(Cc1ccc(Oc2ccnc3cc(C(=O)N4CCC4)sc23)cc1)Nc1ccc(C(F)(F)F)cn1 [Example 27]
Response: 8.00 to 9.00

----------
# key: entry, value: inhibition at 0.05 µM
systemTested: FGF-R1 intracellular kinase domain (Homo sapiens, UniProt P11362, C488A/C584S/L457V)
Construct: starting from the endogenous methionine residue 456 to glutamate 766; made in house; host or cells: baculovirus vector expression system
Sequence (P11362 456-766 L457V/C488A/C584S): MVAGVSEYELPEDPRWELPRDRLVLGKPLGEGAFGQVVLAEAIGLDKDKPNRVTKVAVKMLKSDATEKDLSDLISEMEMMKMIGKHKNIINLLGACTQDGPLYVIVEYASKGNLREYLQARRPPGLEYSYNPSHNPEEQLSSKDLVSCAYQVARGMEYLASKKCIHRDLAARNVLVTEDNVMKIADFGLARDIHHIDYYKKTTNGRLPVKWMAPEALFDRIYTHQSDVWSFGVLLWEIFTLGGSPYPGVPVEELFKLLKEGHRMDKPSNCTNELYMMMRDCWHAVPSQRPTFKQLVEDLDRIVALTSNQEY
experimentNotes: FGF-R spectrophotometric assay
Assay type: biochemical
particulars: 50 nM test compound; read-out: FGF-P (% inh @ 50 nM)

Some solved cases for reference:
compound: Cc1cc(C)nc(NC(=O)Cc2ccc(Oc3ccnc4cc(C(=O)N5CC[C@@H](O)C5)sc34)cc2)c1
systemTested: FGF-R1 intracellular kinase domain (Homo sapiens, UniProt P11362, C488A/C584S/L457V)
valueMeasured: 5 to 10%

compound: COC(C(=O)Nc1ccccn1)c1ccc(Oc2ccnc3cc(C(=O)N4CCC4)sc23)cc1 (stereo not shown)
systemTested: FGF-R1 intracellular kinase domain (Homo sapiens, UniProt P11362, C488A/C584S/L457V)
valueMeasured: 5 to 10%

compound: CNC(=O)C(O)c1ccc(Oc2ccnc3cc(C(=O)N4CC[C@@H](O)C4)sc23)cc1Cl (stereo partly shown)
systemTested: FGF-R1 intracellular kinase domain (Homo sapiens, UniProt P11362, C488A/C584S/L457V)
valueMeasured: 0 to 5%

compound: CNC(=O)Cc1ccc(Oc2ccnc3cc(-c4nccn4C)sc23)cc1Cl
systemTested: FGF-R1 intracellular kinase domain (Homo sapiens, UniProt P11362, C488A/C584S/L457V)
valueMeasured: 0 to 5%

Query: Which inhibition at 0.05 µM is reported for this compound? CNC(=O)Cc1ccc(Oc2ccnc3cc(C(=O)N4CC[C@H](OC)C4)sc23)cc1
Response: 0 to 5%

Query: Which inhibition at 0.05 µM is reported for this compound? Cc1cc(C)nc(NC(=O)Cc2ccc(Oc3ccnc4cc(-c5nccn5C)sc34)c(F)c2)c1
Response: 0 to 5%

Query: Which inhibition at 0.05 µM is reported for this compound? O=C(Cc1ccc(Oc2ccnc3cc(C(=O)N4CC[C@@H](O)C4)sc23)cc1)Nc1ccccn1
Response: 0 to 5%

Query: Which inhibition at 0.05 µM is reported for this compound? O=C(Cc1ccc(Oc2ccnc3cc(C(=O)N4CCC4)sc23)cc1)Nc1ccc(Cl)cn1
Response: 5 to 10%

Query: Which inhibition at 0.05 µM is reported for this compound? O=C(Cc1ccc(Oc2ccnc3cc(C(=O)N4CC[C@@H](O)C4)sc23)cc1Cl)Nc1ccccn1
Response: 0 to 5%

Query: Which inhibition at 0.05 µM is reported for this compound? Cn1ccnc1-c1cc2nccc(Oc3ccc(CC(=O)Nc4ccccn4)c(Cl)c3)c2s1
Response: 0 to 5%
